Molecular target: UniProtKB P36888
Sequence (P36888 whole entry, looked up): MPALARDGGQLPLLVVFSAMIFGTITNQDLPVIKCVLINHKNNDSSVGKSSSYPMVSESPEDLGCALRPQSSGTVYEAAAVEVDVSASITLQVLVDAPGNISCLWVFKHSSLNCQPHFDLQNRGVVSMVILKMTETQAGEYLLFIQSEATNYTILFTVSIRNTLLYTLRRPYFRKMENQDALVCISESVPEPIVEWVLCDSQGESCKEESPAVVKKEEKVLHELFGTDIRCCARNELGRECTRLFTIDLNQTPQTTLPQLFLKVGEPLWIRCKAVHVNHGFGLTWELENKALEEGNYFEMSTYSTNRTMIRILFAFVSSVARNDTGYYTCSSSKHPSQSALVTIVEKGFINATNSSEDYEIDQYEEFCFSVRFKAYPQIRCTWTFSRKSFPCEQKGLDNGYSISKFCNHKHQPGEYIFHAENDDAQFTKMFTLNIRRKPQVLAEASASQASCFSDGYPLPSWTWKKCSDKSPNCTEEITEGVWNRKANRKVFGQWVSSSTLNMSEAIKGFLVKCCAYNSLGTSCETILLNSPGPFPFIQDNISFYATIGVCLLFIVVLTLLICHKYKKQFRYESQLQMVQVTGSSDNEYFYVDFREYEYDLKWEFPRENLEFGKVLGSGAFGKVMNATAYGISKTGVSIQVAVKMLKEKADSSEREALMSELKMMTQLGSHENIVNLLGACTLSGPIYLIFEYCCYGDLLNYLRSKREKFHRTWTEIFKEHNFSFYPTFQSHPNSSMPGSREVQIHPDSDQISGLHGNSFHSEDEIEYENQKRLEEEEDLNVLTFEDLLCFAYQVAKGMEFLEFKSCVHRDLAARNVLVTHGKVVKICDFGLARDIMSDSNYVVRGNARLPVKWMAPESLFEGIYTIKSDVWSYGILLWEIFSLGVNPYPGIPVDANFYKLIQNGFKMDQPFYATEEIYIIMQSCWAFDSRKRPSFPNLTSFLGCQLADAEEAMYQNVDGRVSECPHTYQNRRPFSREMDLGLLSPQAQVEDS
Experiment: inhibitors of Homo sapiens fms-like tyrosine kinase 3, primary HTS, cell-free, LANCE Ultra TR-FRET, NPC library from NCATS (AID 1117356)
Details: recombinant FLT3, LANCE Ultra TR-FRET kinase assay; at 20 µM
The source made the active and inactive calls. The rule behind the calls is not given here.
Pick one: active, inactive

Worked examples follow.
Ask | # fetch the recorded call for CNC(=O)c1cc(Oc2ccc(NC(=O)Nc3ccc(Cl)c(C(F)(F)F)c3)cc2)ccn1 here
Reply | active

Ask | Field: outcome | Entry: CC[C@@H]([C@H](C)O)n1ncn(-c2ccc(N3CCN(c4ccc(OC[C@@H]5CO[C@@](Cn6cncn6)(c6ccc(F)cc6F)C5)cc4)CC3)cc2)c1=O
Reply | inactive

Shifting focus to the compound that follows.
Ask | Record request — test call for COC(=O)Nc1nc2ccc(C(=O)c3cccs3)cc2[nH]1
Reply | inactive
